- measurement_notes: Concentration of meloxicam in plasma of dogs after single subcutaneous silica hydrogel depot
- Type: in vivo
- condition_label: dog, sc, 3.16 mg meloxicam/kg bodyweight, Dog 2, 576.0 hours, single s.c. silica hydrogel depot
metric_name: concentration at 576 h (ng/mL)
Provide only the numeric value, understood in ng/mL.

The compound listed as Cc1cnc(NC(=O)C2=C(O)c3ccccc3S(=O)(=O)N2C)s1 has a reported concentration at 576 h of 101

----------
- measurement_notes: Concentration of meloxicam in plasma of dogs after single subcutaneous silica hydrogel depot
- Assay type: in vivo
- condition_label: dog, sc, 3.16 mg meloxicam/kg bodyweight, Dog 2, 0.0 hours, single s.c. silica hydrogel depot
metric_name: concentration at 0 hours (ng/mL)
Provide only the numeric value, understood in ng/mL.

The compound listed as Cc1cnc(NC(=O)C2=C(O)c3ccccc3S(=O)(=O)N2C)s1 has a reported concentration at 0 hours of 0

----------
- measurement_notes: Concentration of meloxicam in plasma of dogs after single subcutaneous silica hydrogel depot
- Assay type: in vivo
- condition_label: dog, sc, 3.16 mg meloxicam/kg bodyweight, Dog 2, 6.0 hours, single s.c. silica hydrogel depot
metric_name: concentration at 6 h (ng/mL)
Provide only the numeric value, understood in ng/mL.

The compound listed as Cc1cnc(NC(=O)C2=C(O)c3ccccc3S(=O)(=O)N2C)s1 [meloxicam] has a reported concentration at 6 h of 349

----------
- measurement_notes: Concentration of meloxicam in plasma of dogs after single subcutaneous silica hydrogel depot
- Assay type: in vivo
- condition_label: dog, sc, 3.16 mg meloxicam/kg bodyweight, Dog 2, 1176.0 hours, single s.c. silica hydrogel depot
- Method: Example 1 relates to animal studies carried out. […] The appropriate dose of TI was administered subcutaneously as a one off dose at the area behind the shoulder blade.
metric_name: concentration at 1176 hours (ng/mL)
Provide only the numeric value, understood in ng/mL.

The compound listed as Cc1cnc(NC(=O)C2=C(O)c3ccccc3S(=O)(=O)N2C)s1 has a reported concentration at 1176 hours of 5.6

----------
- measurement_notes: Concentration of meloxicam in plasma of dogs after single subcutaneous silica hydrogel depot
- Format: in vivo
- condition_label: dog, sc, 3.16 mg meloxicam/kg bodyweight, Dog 3, 576.0 hours, single s.c. silica hydrogel depot
metric_name: concentration at 576 h (ng/mL)
Provide only the numeric value, understood in ng/mL.

The compound listed as Cc1cnc(NC(=O)C2=C(O)c3ccccc3S(=O)(=O)N2C)s1 has a reported concentration at 576 h of 16.6
